- Organism: Rattus norvegicus
- test-protocol: Dose required to reduce serum cholesterol by 50% relative to ovariectomized (OVX) controls
- Assay type: functional
quantity-name: ED50 (mg/kg)
Express the result in mg/kg but write the number alone.

For the compound shown here, CC/C(=C(\c1ccccc1)c1ccc(OCCN(C)C)cc1)c1ccccc1 , give the reported ED50.
0.2

Quick check: ED50 of Oc1ccc2c(c1)OC(c1ccc(OCCN3CCCC3)cc1)c1c-2sc2cc(O)ccc12 (stereo not drawn) ?
0.2

So what's the measured ED50 for this one? O=C(c1ccc(OCCN2CCCCC2)cc1)c1c(-c2ccc(O)cc2)sc2cc(O)ccc12
0.2
